Can you tell me TGI for the items I'm about to list?
- Test system: SN12C renal
- measurement-notes: NCI tumour cell line growth inhibition, 48 h
Give bare numbers, in µM.

COc1ccc(/C=C2\N=C(N/N=C\C(O)C(O)C(O)C(O)CO)NC2=O)cc1 (stereo not given): 52.2
O=C(CCc1nnc2s/c(=C\c3ccccc3[N+](=O)[O-])c(=O)n12)Nc1cc(Cl)c(Cl)cc1Cl: 63.8

Asked: What measured TGI goes with C[C@]12CC[C@@H]3c4cc(Br)c(O)c(Br)c4CC[C@H]3[C@@H]1CC(Br)C2=O (stereo not given in full) ?
Given back: 38.4

###

- Test system: IGROV1 ovarian
- measurement-notes: NCI tumour cell line growth inhibition, 48 h; in the data active = GI50 below about 0.43 µM; inactive = the rest
Form entry, call: pick from active, inactive

Clc1ccc2c(N3CCN(c4ccnc(NC5CCCCC5)n4)CC3)ccnc2c1: inactive
COc1cccc2[nH]c3c4c(c5c(c3c12)C(=O)N(CN1CCN(C)CC1)C5=O)CCC4: inactive
C=CCN1C(=O)c2cccc3c(N4CCOCC4)ccc(c23)C1=O: active
C[CH2][Sn]([CH2]C)([O]C(=O)c1ccccc1F)[O]C(=O)c1ccccc1F: inactive

Asked: Dear colleague, could you share the recorded outcome for COc1cccc2c1C(=O)c1c(O)c3c(c(O)c1C2=O)C[C@@](O)(C(=O)CO)C[C@@H]3OC1CC2C(OCN3CN2COC2C(C)OC(O[C@H]4C[C@](O)(C(=O)CO)Cc5c(O)c6c(c(O)c54)C(=O)c4c(OC)cccc4C6=O)CC23)C(C)O1 (some centres not stated) when you have a moment?
Given back: active

Asked: Dear colleague, could you share the recorded outcome for `COc1cc(-c2nccn2-c2ccc3ccccc3c2)cc(OC)c1OC` when you have a moment?
Given back: inactive

Asked: Dear colleague, could you share the recorded outcome for CCC[CH2][Sn]1([CH2]CCC)[O]CC(CN2CCCCC2)[O]1 (configuration not stated) when you have a moment?
Given back: inactive
